TARGET OR TEST SYSTEM: Histone deacetylase 1 (Homo sapiens)
Sequence (Q13547 whole entry): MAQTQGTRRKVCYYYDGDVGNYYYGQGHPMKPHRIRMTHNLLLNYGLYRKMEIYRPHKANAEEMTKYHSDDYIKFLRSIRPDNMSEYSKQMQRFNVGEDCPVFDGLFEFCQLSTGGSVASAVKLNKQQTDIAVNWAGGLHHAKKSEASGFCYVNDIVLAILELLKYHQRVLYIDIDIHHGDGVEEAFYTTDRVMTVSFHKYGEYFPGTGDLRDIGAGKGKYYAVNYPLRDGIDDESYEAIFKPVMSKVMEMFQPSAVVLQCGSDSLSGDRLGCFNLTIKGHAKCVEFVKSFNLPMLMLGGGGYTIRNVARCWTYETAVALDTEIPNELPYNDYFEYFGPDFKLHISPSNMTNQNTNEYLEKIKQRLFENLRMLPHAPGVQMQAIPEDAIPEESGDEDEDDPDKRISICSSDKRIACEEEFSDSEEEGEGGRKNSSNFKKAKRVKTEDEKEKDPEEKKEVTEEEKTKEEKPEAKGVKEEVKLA
TEST DESCRIPTION: Inhibition of full length recombinant C-terminal GST-tagged human HDAC1 expressed in baculovirus infected Sf9 insect cells incubated for 50 mins by Glo- luminescence assay
READOUT: IC50
Note: a bare number is incomplete; add the unit.

Form: compound = "CN(C)CCCNC(=O)c1ccc(/C=C2\CCn3c2nc2cc(N4CCN(CCCCCCCC(=O)NO)CC4)c(F)cc2c3=O)cc1.Cl" ; IC50 = 1260 nM

---

TARGET OR TEST SYSTEM: Protein deacetylase HDAC6 (Homo sapiens, UniProt Q9UBN7)
Sequence (Q9UBN7 whole entry): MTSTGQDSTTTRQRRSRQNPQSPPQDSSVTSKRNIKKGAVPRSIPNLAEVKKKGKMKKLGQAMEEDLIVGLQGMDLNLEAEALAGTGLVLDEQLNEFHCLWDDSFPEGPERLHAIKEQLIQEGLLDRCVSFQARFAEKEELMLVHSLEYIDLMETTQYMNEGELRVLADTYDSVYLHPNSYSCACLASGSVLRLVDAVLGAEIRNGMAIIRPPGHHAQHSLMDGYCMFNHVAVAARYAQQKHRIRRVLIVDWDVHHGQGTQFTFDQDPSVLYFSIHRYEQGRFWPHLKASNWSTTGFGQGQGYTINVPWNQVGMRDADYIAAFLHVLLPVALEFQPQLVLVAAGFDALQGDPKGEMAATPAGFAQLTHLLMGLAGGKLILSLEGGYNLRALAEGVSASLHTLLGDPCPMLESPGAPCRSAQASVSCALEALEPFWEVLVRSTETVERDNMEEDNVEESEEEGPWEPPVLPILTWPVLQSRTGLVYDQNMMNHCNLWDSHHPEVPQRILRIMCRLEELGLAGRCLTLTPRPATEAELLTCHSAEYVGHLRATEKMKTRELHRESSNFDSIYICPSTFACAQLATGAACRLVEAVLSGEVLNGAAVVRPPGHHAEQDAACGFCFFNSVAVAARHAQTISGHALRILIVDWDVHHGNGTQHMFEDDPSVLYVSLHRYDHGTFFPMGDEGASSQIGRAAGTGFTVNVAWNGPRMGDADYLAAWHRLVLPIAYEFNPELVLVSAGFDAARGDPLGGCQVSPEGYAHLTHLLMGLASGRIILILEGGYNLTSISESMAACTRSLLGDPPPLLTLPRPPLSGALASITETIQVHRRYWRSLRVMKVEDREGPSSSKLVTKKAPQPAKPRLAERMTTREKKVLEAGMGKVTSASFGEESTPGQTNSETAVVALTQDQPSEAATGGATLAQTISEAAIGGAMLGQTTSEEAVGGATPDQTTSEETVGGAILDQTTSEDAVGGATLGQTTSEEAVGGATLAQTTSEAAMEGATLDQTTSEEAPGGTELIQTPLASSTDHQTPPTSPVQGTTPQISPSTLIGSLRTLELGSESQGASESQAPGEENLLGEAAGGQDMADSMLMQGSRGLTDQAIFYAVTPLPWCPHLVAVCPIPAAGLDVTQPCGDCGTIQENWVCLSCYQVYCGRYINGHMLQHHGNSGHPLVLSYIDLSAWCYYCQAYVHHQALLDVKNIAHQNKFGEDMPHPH
TEST DESCRIPTION: Inhibition of full length recombinant N-terminal GST-tagged human HDAC6 expressed in baculovirus infected Sf9 insect cells incubated for 50 mins by Glo- luminescence assay
READOUT: pIC50
Entry type: numeric. Quantity: pIC50, the -log10 of concentration in molar units.

The reported pIC50 of the molecule "CN(C)CCCNC(=O)c1ccc(/C=C2\CCn3c2nc2cc(N4CCN(CCCCCCCC(=O)NO)CC4)c(F)cc2c3=O)cc1.Cl" was 6.19

---

Give DC50 for every item shown.
TARGET OR TEST SYSTEM: Quadruplex DNA
TEST DESCRIPTION: Binding affinity to 5' FAM-labeled c-myc G4-quadruplex DNA Pu22 (unknown origin) by fluorescence quench assay
Format: nucleic-acid assay
Give the value in nM but do not write nM after it.

"CN(C)CCCNC(=O)c1ccc(/C=C2\CCn3c2nc2cc(N4CCN(Cc5ccc(/C=C/C(=O)Nc6ccccc6N)cc5)CC4)c(F)cc2c3=O)cc1" has a reported DC50 of 300

Input "CN(C)CCCNC(=O)c1ccc(/C=C2\CCn3c2nc2cc(N4CCN(Cc5ccc(C(=O)NO)cc5)CC4)c(F)cc2c3=O)cc1.Cl" . Output DC50: 200

In plain terms, "CN(C)CCCNC(=O)c1ccc(/C=C2\CCn3c2nc2cc(N4CCN(CCCCCCCC(=O)NO)CC4)c(F)cc2c3=O)cc1.Cl" has a documented DC50 of 400

Input "CN(C)CCCNC(=O)c1ccc(/C=C2\CCn3c2nc2cc(N4CCN(CCCCCC(=O)NO)CC4)c(F)cc2c3=O)cc1.Cl" . Output DC50: 900

Record "CN1CCN(c2cc3nc4n(c(=O)c3cc2F)CC/C4=C\c2ccc(C(=O)NO)cc2)CC1" . Reported DC50: 2900

get_value(item= "CN1CCN(c2cc3nc4n(c(=O)c3cc2F)CC/C4=C\c2ccc(C(=O)Nc3ccccc3N)cc2)CC1" , readout=DC50) returns 200

Sample "CN(C)CCCNC(=O)c1ccc(/C=C2\CCn3c2nc2cc(NCCCCCCC(=O)NO)c(F)cc2c3=O)cc1.Cl" ; DC50 observed: 300

Note to self: DC50 recorded for "CN(C)CCCNC(=O)c1ccc(/C=C2\CCn3c2nc2cc(N4CCN(CCCCC(=O)NO)CC4)c(F)cc2c3=O)cc1.Cl" was 800

---

TARGET OR TEST SYSTEM: Quadruplex DNA
TEST DESCRIPTION: Binding affinity to 5' FAM-labeled c-myc G4-quadruplex DNA Pu22 (unknown origin) by fluorescence quench assay
Format: nucleic-acid assay
READOUT: DC50 (µM)
Number only, in µM; omit the unit.

Value sought: DC50, system Quadruplex DNA, item "CN(C)CCCNC(=O)c1ccc(/C=C2\CCn3c2nc2cc(N4CCN(CCCCCCC(=O)NO)CC4)c(F)cc2c3=O)cc1.Cl" . Result: 1.7

Case "CN(C)CCCNC(=O)c1ccc(/C=C2\CCn3c2nc2cc(N4CCN(Cc5ccc(/C=C/C(=O)NO)cc5)CC4)c(F)cc2c3=O)cc1.Cl" , Quadruplex DNA, DC50 recorded as 0.2

Record for "CCN(CC)CCCNC(=O)c1ccc(/C=C2\CCn3c2nc2cc(NCCCN4CCCC4)c(F)cc2c3=O)cc1" under target or system Quadruplex DNA: DC50 reported as 1.4

Record "CN(C)CCCNC(=O)c1ccc(/C=C2\CCn3c2nc2ccc(OCCCCCCC(=O)NO)cc2c3=O)cc1.Cl" / Quadruplex DNA, DC50 recorded as 0.9

So the reported DC50 for "CN(C)CCCNC(=O)c1ccc(/C=C2\CCn3c2nc2cc(N4CCN(CCCC(=O)NO)CC4)c(F)cc2c3=O)cc1" , on Quadruplex DNA, turned out to be 1.3

Note to self: DC50 of "CN(C)CCCNC(=O)c1ccc(/C=C2\CCn3c2nc2cc(N4CCN(CCCCCCCC(=O)Nc5ccccc5N)CC4)c(F)cc2c3=O)cc1" with Quadruplex DNA was 1.2

Result for "Cl.O=C(CCCCCCNC(=O)c1ccc(/C=C2\CCn3c2nc2cc(NCCCN4CCCC4)c(F)cc2c3=O)cc1)NO" , tested on Quadruplex DNA, DC50: 3

Param item: "Nc1ccccc1NC(=O)c1ccc(/C=C2\CCn3c2nc2cc(NCCCN4CCCC4)c(F)cc2c3=O)cc1" ; param system: Quadruplex DNA; output DC50: 0.6

The molecule "CN(C)CCCNc1cc2nc3n(c(=O)c2cc1F)CC/C3=C\c1ccc(C(=O)Nc2ccccc2N)cc1" on Quadruplex DNA: DC50 was 0.2
